The measured values listed here are drawn from paper PMC6908968.

# Tested system: EBOV GP ectodomain residues 1-636 (GPec) (Zaire ebolavirus, strain  …, UniProt Q05320)

Binder	binding result
5.6.c3363 (antibody, V domains shown) VH: EVKLVESGGDLIQPGGSLRLSCAGSGFTFSNYAMSWVRQAPGKGLEWVSGLSGSGRNTYYADSVKGRFTISRDNSQNTLFLQMNSLRAEDTAIYYCATASVWSGYVLQYWGQGALVIVSS VL: DIQMTQSPSSLSASVGDRVTITCRASQNINDWLAWYQQKPGKAPKLLIFRASSLESGVPSRFSGSGFGTEFTLTISSLQPDDFASYYCQQYKSYPMYTFGQGTKLDIN	binds
5.6.c3955 (antibody, V domains shown) VH: EVQLVESGGGLVQPGGSLRLSCAASGFTFSTYSMNWLRQAPGKGLEWISFISIRSTTTYYADSVKGRFTISRDDAKNSLYLQMNSLRDEDTAVYYCARVYMRTFYFDNWGQGTLVTVSS VL: QSALTQPASVSGSPGQSITISCTGTSSDVGDYNYVSWYQQHPGKAPKLLIFDVSNRPSGVSNRFSGSKSGNTASLTISGLQAEDEADYYCSSYASSRTSWVFGGGTKLTVL	binds
5.6.c4011 (antibody, V domains shown) VH: QVQLQESGPGVVKPSETLSLTCTVSGASMTGYYWSWIRQPPGKGLEWIGYIFYSGSTNYNPSLKSRATISVDTSKKQFSLKLSSVTAADTAVYYCARSVVVIENDAFDIWGQGTMVTVSS VL: DIQMTQSPSSLSASVGDRVTITCRASQSTTSYLNWYQQKPGKAPKLLIFAASTLQSGVPSRFSGSGSGTDFTLTISSLQPEDFATYYCQQSYSAPYTFGQGTKLEIK	binds
